Experiment: Cmax in Sprague-Dawley rat at 3 mg/kg, po measured upto 24 hrs by LC-MS/MS analysis
Assay type: ADME, organism-based
Design: dose 3 mg/kg, time < 24 hrs, route po
Details: in vivo
Assay metric: Cmax (ng/mL)
Report as a plain number; the unit ng/mL is understood.

Compound: C[C@H]1CC2(CCN(c3ccc(C(=O)N4CCC(CN5Cc6cc7c(cc6C5)C(=O)N(C5CCC(=O)NC5=O)C7=O)CC4)nn3)CC2)CN1c1ccc(C#N)c(Cl)c1 (some centres undefined)
Units: ng/mL
Cmax: 247

**Query** Which Cmax value is on record for N#Cc1ccc(O[C@H]2CC[C@H](NC(=O)c3ccc(N4CCC(CN5CCN(c6cc7c(cc6F)C(=O)N(C6CCC(=O)NC6=O)C7=O)CC5)CC4)nn3)CC2)cc1Cl (some centres undefined) [BAVDEGALUTAMIDE] ?
**Result** 280

**Query** Which Cmax value is on record for C[C@H]1CC2(CCN(c3cnc(C(=O)N4CCC(CN5Cc6cc7c(cc6C5)C(=O)N(C5CCC(=O)NC5=O)C7=O)CC4)cn3)CC2)CN1c1ccc(C#N)c(Cl)c1 (some centres undefined) ?
**Result** 55

**Query** Which Cmax value is on record for CN(c1ccc(C#N)c(Cl)c1)[C@H]1CC[C@H](NC(=O)c2ccc(N3CCN(C4CN(c5ccc6c(c5)C(=O)N(C5CCC(=O)NC5=O)C6=O)C4)CC3)cc2)CC1 (some centres undefined) ?
**Result** 57

* * *

Test: Metabolic stability in human hepatocyte assessed as half life measured upto 120 mins by LC-MS/MS analysis
Type: ADME, cell-based
Conditions: hepatocytes
Assay metric: half-life

**Query** Which half-life value is on record for C[C@H]1CC2(CCN(c3ccc(C(=O)N4CCC(CN5Cc6cc7c(cc6C5)C(=O)N(C5CCC(=O)NC5=O)C7=O)CC4)cc3)CC2)CN1c1ccc(C#N)c(Cl)c1 (stereo partly specified) ?
**Result** > 2 h

* * *

Experiment: Metabolic stability in rat liver microsome assessed as half life measured upto 45 mins in presence of NADPH by LC-MS/MS analysis
Format: ADME
Conditions: liver microsomes
Assay metric: half-life at […]

**Query** Which half-life at […] value is on record for C[C@H]1CC2(CCN(c3ccc(C(=O)N4CCC(CN5Cc6cc7c(cc6C5)C(=O)N(C5CCC(=O)NC5=O)C7=O)CC4)cc3)CC2)CN1c1ccc(C#N)c(Cl)c1 (stereo partly specified) ?
**Result** > 1 h

* * *

Let's look at some molecules and their measured clearance.
Test: Clearance in Sprague-Dawley rat at 1 mg/kg, iv measured upto 24 hrs by LC-MS/MS analysis
Type: ADME, organism-based
Details: in vivo
Report as a plain number; the unit mL/min/kg is understood.

Molecule: N#Cc1ccc(O[C@H]2CC[C@H](NC(=O)c3ccc(N4CCC(CN5CCN(c6cc7c(cc6F)C(=O)N(C6CCC(=O)NC6=O)C7=O)CC5)CC4)nn3)CC2)cc1Cl (some centres undefined) [BAVDEGALUTAMIDE]
Assay metric: clearance
Experimental result: 6

**Query** Which clearance value is on record for C[C@H]1CC2(CCN(c3cnc(C(=O)N4CCC(CN5Cc6cc7c(cc6C5)C(=O)N(C5CCC(=O)NC5=O)C7=O)CC4)cn3)CC2)CN1c1ccc(C#N)c(Cl)c1 (some centres undefined) ?
**Result** 33.3

**Query** Which clearance value is on record for CN(c1ccc(C#N)c(Cl)c1)[C@H]1CC[C@H](NC(=O)c2ccc(N3CCN(C4CN(c5ccc6c(c5)C(=O)N(C5CCC(=O)NC5=O)C6=O)C4)CC3)cc2)CC1 (some centres undefined) ?
**Result** 12.5

**Query** Which clearance value is on record for C[C@H]1CC2(CCN(c3ccc(C(=O)N4CCC(CN5Cc6cc7c(cc6C5)C(=O)N(C5CCC(=O)NC5=O)C7=O)CC4)nn3)CC2)CN1c1ccc(C#N)c(Cl)c1 (some centres undefined) ?
**Result** 32.3
